Tested on: S. aureus Met-R multiresistant strains
Test: MIC determination (NCCLS broth microdilution), methicillin-resistant multiresistant S. aureus strains
Type: cell-based, Staphylococcus aureus
Conditions: Staphylococcus aureus, Strain 14; antibiotype Oxa, Clin, Cip, Ery; read-out: MIC
Method: The MICs of thiamphenicol and of other antibiotics was obtained by using the method proposed by NCCLS (National Committee for Clinical Laboratory Standards, 1999). Various antibiotic concentrations were added to bacteria in exponental growth (final inoculum 5×10^5 […]); dilution in Mb (cation-supplemented Mueller-Hinton broth) and distribution on a microplate by using an automatic diluting machine Biomek 1000 (Beckman, USA). MHb charged with 2% NaCl was used to test the methicillin activity. […]
assay.endpoint: MIC

COc1cccc(OC)c1C(=O)N[C@@H]1C(=O)N2[C@@H]1SC(C)(C)[C@@H]2C(=O)O: > 64 µg/mL
CC[C@H]1OC(=O)[C@H](C)[C@@H](O[C@H]2C[C@@](C)(OC)[C@@H](O)[C@H](C)O2)[C@H](C)[C@@H](O[C@@H]2O[C@H](C)C[C@H](N(C)C)[C@H]2O)[C@](C)(O)C[C@@H](C)C(=O)[C@H](C)[C@@H](O)[C@]1(C)O: > 64 µg/mL

Now look at this entry.
Task item: MIC lookup needed for `CCC[C@@H]1C[C@@H](C(=O)N[C@@H]([C@H]2O[C@H](SC)[C@H](O)[C@@H](O)[C@H]2O)[C@H](C)Cl)N(C)C1` , thanks.
Reply: > 64 µg/mL
